apparent Kd (screen) values for the binders below.
TESTED_SYSTEM: T1, TNFR1 (Homo sapiens, UniProt P19438)
T1 chain: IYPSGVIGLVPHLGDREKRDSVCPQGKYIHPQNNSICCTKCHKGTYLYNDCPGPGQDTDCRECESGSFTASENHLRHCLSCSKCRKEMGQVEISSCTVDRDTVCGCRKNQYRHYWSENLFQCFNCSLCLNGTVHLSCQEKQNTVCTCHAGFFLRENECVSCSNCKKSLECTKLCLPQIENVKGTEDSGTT
PROTOCOL_DETAILS: yeast display SC50
Write it as a number; the unit nM goes unstated.

{"BINDER": "K85Y (designed binder) SMEEEVEKAAKEYEKKKKEAIEKHLEKLKAKDKEAAERFLKELEEAAKEYAKDEAKTMSEEEAKRRAKKYKEKVLLSELSEEEQYEIKEAEEKLVRTILKYVEEAAK", "EXPERIMENTAL_READOUT": "apparent Kd (screen)", "UNIT_INFO": "nM", "REPORTED_RESULT": 0.446}

Next, consider the following binder.
Report measured apparent Kd (screen); entry is R65Y (designed binder) SMEEEVEKAAKEYEKKKKEAIEKHLEKLKAKDKEAAERFLKELEEAAKEYAKDEAKTMSEEEAKYRAKKYKEKVLLSELSEEEQKEIKEAEEKLVRTILKYVEEAAK 11.4
